B1: library; numbered along this chain (parent)
chain: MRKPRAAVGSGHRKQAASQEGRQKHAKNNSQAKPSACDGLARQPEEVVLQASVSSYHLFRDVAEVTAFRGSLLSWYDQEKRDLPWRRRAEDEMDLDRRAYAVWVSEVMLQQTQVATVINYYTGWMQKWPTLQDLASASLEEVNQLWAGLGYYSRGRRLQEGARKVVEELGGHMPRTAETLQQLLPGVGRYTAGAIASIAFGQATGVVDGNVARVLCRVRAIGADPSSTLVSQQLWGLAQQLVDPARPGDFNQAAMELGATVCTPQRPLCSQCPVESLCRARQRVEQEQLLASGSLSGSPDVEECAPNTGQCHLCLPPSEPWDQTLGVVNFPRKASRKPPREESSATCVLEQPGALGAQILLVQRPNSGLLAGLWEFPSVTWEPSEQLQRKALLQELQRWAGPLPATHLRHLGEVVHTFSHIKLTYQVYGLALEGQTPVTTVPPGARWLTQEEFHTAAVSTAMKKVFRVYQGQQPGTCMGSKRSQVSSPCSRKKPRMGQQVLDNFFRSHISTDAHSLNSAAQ

variants of: B1; assay: 8OG:A repair function score (normalized; synonymous = 0, nonsense = -1) (normalized log-likelihood score); higher = more repair activity (WT-like); conditions: with 8OG:A DNA repair reporter (GFP) in HEK-293 MUTYH KO cells;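 note: cells sorted at 72 h after reporter transfection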
readoutLabel: 8OG:A repair function score

mutant: P338E
reading: -0.133
//
mutant: A291D
reading: -0.119
//
mutant: Q351P
reading: -0.756
//
mutant: A445S
reading: -0.0458
//
mutant: P44N
reading: -0.0778
//
mutant: I198L
reading: -0.391
//
mutant: S153G
reading: -0.237
//
mutant: Q386K
reading: -0.213
//
mutant: N119K
reading: -0.0285
//
mutant: A99F
reading: -1.14
//
mutant: Y151H
reading: -0.509
//
mutant: T191Y
reading: -1.07
//
mutant: K127P
reading: -0.884
//
mutant: Q435P
reading: 0.288
//
mutant: V102M
reading: -0.352
//
mutant: V427Y
reading: -1.2
//
mutant: R213G
reading: -1.01
//
mutant: H416N
reading: -0.342
//
mutant: E433N
reading: -0.0644
//
mutant: G353C
reading: -0.0857
//
mutant: L184A
reading: -0.718
//
mutant: D96V
reading: -0.431
//
mutant: E92L
reading: -0.011
//
mutant: R506C
reading: 0.0164
//
mutant: A89I
reading: -0.0304
//
mutant: V242F
reading: -0.874
//
mutant: Q473A
reading: -0.00985
//
mutant: V65F
reading: -0.0274
//
mutant: L257P
reading: -1
//
mutant: M93V
reading: 0.00114
//
mutant: A212Q
reading: -0.0874
//
mutant: V166F
reading: -0.0998
//
mutant: N143R
reading: -0.181
//
mutant: R163Y
reading: -0.137
//
mutant: S153Y
reading: -0.143
//
mutant: Q499M
reading: 0.00183
//
mutant: H312W
reading: -0.103
//
mutant: V362F
reading: -0.662
//
mutant: G401W
reading: -0.421
//
mutant: A89V
reading: 0.00684
//
mutant: P331L
reading: -0.609
//
mutant: A461G
reading: 0.00127
//
mutant: Q426W
reading: -0.215
//
mutant: L313K
reading: -0.581
//
mutant: A357V
reading: -0.0294
//
mutant: S507T
reading: 0.0162
